# System: L. donovani promastigotes
# protocol: Leishmania promastigote viability assay
# Format: cell-based, Leishmania donovani
# test_context: Supplementary Table 1; read-out: Leishmania Promastigote EC50
Please use criterion met for EC50 under 6 µM and criterion not met for everything else, ties included.

INSERT INTO assay_data (compound, answer_label) VALUES
  ('COc1cc(C(F)(F)F)c2cc(CNCCCNc3nc4ccccc4[nH]3)[nH]c2c1', 'criterion not met'),
  ('CCOc1c(CNCCCNc2nc3ccccc3[nH]2)cc(Br)cc1OC', 'criterion not met'),
  ('Cc1c(CNCCCNc2nc3ccccc3[nH]2)[nH]c2cc(Cl)cc(Cl)c12', 'criterion met'),
  ('OCCn1c(CNCCCNc2nc3ccccc3[nH]2)cc2c(Cl)cc(Cl)cc21', 'criterion met'),
  ('FC(F)(F)c1cc(C(F)(F)F)c2cc(CNCCCNc3nc4ccccc4[nH]3)[nH]c2c1', 'criterion not met'),
  ('CCOc1c(Br)cc(Cl)cc1CNCCCNc1nc2ccccc2[nH]1', 'criterion met');

# input Report whether reported EC50 is lower than 6 µM (strictly) for CCOc1c(Cl)cc(Cl)cc1CNCCCNc1nc2ccccc2[nH]1
# output criterion met

# input Input COc1cccc2[nH]c(NCCCNCc3cc(Br)cc(Br)c3)nc12 ; condition: EC50 strictly below 6 µM. Does it hold?
# output criterion not met

# input Report whether reported EC50 is lower than 6 µM (strictly) for Clc1ccc(Cl)c2[nH]c(CNCCCNc3nc4ccccc4[nH]3)cc12
# output criterion not met

# input Field: below-cutoff. Rule: recorded EC50 strictly less than 6 µM. Subject: Cc1cc(C)c2cc(CNCCCNc3nc4ccccc4[nH]3)[nH]c2c1
# output criterion not met

# input Is EC50 strictly under 6 µM for the entry Brc1cc(Br)c2c(c1)C(NCCCNc1nc3ncccc3[nH]1)CCN2 (centres unmarked) ?
# output criterion met

# input Determine if OCc1c(Cl)cc(Cl)cc1CNCCCNc1nc2ccccc2[nH]1 shows EC50 strictly lower than 6 µM.
# output criterion not met

# input Bench note: check whether COc1cc(C(F)(F)F)cc2[nH]c(CNCCCNc3nc4ccccc4[nH]3)cc12 shows EC50 below 6 µM
# output criterion not met

# input Consider the compound CCOc1c(Br)cc(C)cc1CNCCCNc1nc2ccccc2[nH]1 . Is its EC50 strictly less than 6 µM?
# output criterion not met

---

# Tested on: L. donovani promastigotes
# protocol: Leishmania promastigote viability assay
# Type: cell-based, Leishmania donovani
# test_context: Leishmania donovani, Supplementary Table 1; read-out: Leishmania Promastigote EC50
readout_type: EC50 (nM)
Just the number please, in nM, no unit attached.

Notebook: Cl.Cl.O=c1nc(NCCCNCc2cc3c(Cl)cc(Cl)cc3[nH]2)[nH]c2ccccc12 [DDD806905] , EC50 read as 440

---

# protocol: LogD measurement (Sirius T3, potentiometric)
# Format: physicochemical
# test_context: octanol/water, pH 7.3; read-out: log D7.3
readout_type: logD
I'd appreciate a reply containing only the number, no unit.

Per the records, this molecule ( Cl.Cl.O=c1nc(NCCCNCc2cc3c(Cl)cc(Cl)cc3[nH]2)[nH]c2ccccc12 ) has logD equal to 2.6

---

# study_target: LdMetRS (Leishmania donovani, UniProt A0A3Q8IBX2)
# Sequence (A0A3Q8IBX2 entry or part of it): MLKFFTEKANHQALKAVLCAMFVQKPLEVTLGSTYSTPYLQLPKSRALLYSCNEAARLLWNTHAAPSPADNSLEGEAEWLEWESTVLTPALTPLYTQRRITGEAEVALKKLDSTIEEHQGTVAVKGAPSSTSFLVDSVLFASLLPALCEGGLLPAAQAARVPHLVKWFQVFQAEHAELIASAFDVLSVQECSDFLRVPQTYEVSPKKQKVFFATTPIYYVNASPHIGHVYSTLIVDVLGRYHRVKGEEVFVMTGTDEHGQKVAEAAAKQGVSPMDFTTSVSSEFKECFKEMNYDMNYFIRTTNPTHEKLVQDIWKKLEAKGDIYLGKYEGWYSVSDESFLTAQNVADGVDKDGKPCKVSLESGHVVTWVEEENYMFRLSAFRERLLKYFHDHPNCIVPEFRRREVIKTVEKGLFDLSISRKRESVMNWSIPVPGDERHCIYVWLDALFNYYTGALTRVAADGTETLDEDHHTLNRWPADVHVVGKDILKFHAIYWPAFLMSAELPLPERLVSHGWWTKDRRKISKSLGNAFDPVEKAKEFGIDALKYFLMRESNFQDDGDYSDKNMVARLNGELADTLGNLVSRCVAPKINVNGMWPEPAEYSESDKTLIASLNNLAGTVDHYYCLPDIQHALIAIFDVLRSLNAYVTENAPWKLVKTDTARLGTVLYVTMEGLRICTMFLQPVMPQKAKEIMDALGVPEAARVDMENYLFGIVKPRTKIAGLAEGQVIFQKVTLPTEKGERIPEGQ
# protocol: LdMetRS biochemical enzyme assay (BIOMOL Green)
# test_context: LdMetRS IC50, Fig S5B: ATP 50 µM, methionine 500 µM
readout_type: IC50 (nM)
Note: unit nM is implicit; provide only the numeric part.

// recorded IC50 for Cl.Cl.O=c1nc(NCCCNCc2cc3c(Cl)cc(Cl)cc3[nH]2)[nH]c2ccccc12 : 98

---

# study_target: LdMetRS (Leishmania donovani)
# protocol: LdMetRS biochemical enzyme assay (BIOMOL Green)
# test_context: Ki, mixed inhibition with respect to ATP, mixed inhibition model; Ki ± SE
readout_type: pKi
Bear in mind: pKi is minus log10 of a mol/L concentration; give just that figure.

Per the records, this compound ( Cl.Cl.O=c1nc(NCCCNCc2cc3c(Cl)cc(Cl)cc3[nH]2)[nH]c2ccccc12 [DDD806905] ) has pKi equal to 7.68

---

# study_target: LdMetRS (Leishmania donovani)
# protocol: LdMetRS biochemical enzyme assay (BIOMOL Green)
# test_context: Ki, competitive inhibition with respect to methionine, global competitive inhibition model; Ki ± SE
readout_type: Ki (nM)
The figure you give is taken to be in nM; do not add the unit.

LdMetRS (Leishmania donovani) Ki of Cl.Cl.O=c1nc(NCCCNCc2cc3c(Cl)cc(Cl)cc3[nH]2)[nH]c2ccccc12 is 18

---

# Tested on: L. donovani promastigotes
# protocol: Leishmania promastigote viability assay
# Format: cell-based, Leishmania donovani
# test_context: Leishmania donovani, extrapolated to no serum; read-out: predicted promastigote EC50
readout_type: pEC50
Conceptually, pEC50 converts a concentration in mol/L into minus its log10.

// sample Cl.Cl.O=c1nc(NCCCNCc2cc3c(Cl)cc(Cl)cc3[nH]2)[nH]c2ccccc12 , its pEC50 was 6.92

---

# study_target: LdMetRS (Leishmania donovani, UniProt A0A3Q8IBX2)
# protocol: LdMetRS biochemical enzyme assay (BIOMOL Green)
# test_context: LdMetRS IC50 (μM), Table 1
# Method: LdMetRS Assay Development and Kinetic Parameter Determinations Activity of the LdMetRS enzyme was determined by monitoring levels of pyrophosphate released during the first step of the enzymatic reaction. The pyrophosphate formed was converted to two inorganic phosphate molecules using a pyrophosphatase enzyme and levels of the resulting phosphate molecules measured using the BIOMOL® Green reagent (Enzo Life Sciences) 2. […]
readout_type: IC50
Enter the number, and then the unit.

compound Cl.Cl.O=c1nc(NCCCNCc2cc3c(Cl)cc(Cl)cc3[nH]2)[nH]c2ccccc12 , IC50 observed: 0.09 µM

---

# study_target: LdMetRS (Leishmania donovani)
# protocol: LdMetRS biochemical enzyme assay (BIOMOL Green)
# test_context: Supplementary Table 1; read-out: LdMetRS IC50
readout_type: IC50 (µM)
Just the number please, in µM, no unit attached.

INSERT INTO results (compound, readout_type, u, recorded_result) VALUES
  ('CCOc1c(CNCCCNc2nc3ccccc3[nH]2)cc(Br)cc1OC', 'IC50', 'µM', 37);

The measured IC50 that Brc1cc(Br)c2c(c1)C(NCCCNc1nc3ncccc3[nH]1)CCN2 (stereo not drawn) showed for LdMetRS (Leishmania donovani) is 0.17

Item FC(F)(F)c1cc(C(F)(F)F)c2cc(CNCCCNc3nc4ccccc4[nH]3)[nH]c2c1 ; assay system LdMetRS (Leishmania donovani); IC50 reported as 46

---

# System: L. donovani promastigotes
# protocol: Leishmania promastigote viability assay
# Type: cell-based, Leishmania donovani
# test_context: Leishmania donovani, 10% serum; read-out: promastigote EC50
readout_type: EC50

Measured EC50 of Cl.Cl.O=c1nc(NCCCNCc2cc3c(Cl)cc(Cl)cc3[nH]2)[nH]c2ccccc12 : 270 nM

---

# Test system: protein synthesis in Leishmania tarentolae cell extract
# protocol: Leishmania tarentolae in vitro translation (eGFP expression in cell extract)
# Assay type: biochemical
# test_context: L. tarentolae extract, no additional methionine; read-out: EC50 inhibition of eGFP protein synthesis
readout_type: EC50

Note to self: EC50 of Cl.Cl.O=c1nc(NCCCNCc2cc3c(Cl)cc(Cl)cc3[nH]2)[nH]c2ccccc12 [DDD806905] with protein synthesis in Leishmania tarentolae cell extract was 2200 nM

---

# study_target: LdMetRS (Leishmania donovani, UniProt A0A3Q8IBX2)
# protocol: LdMetRS biochemical enzyme assay (BIOMOL Green)
# test_context: LdMetRS IC50, Fig S5C: methionine and ATP both 50 µM
readout_type: IC50
Report the figure along with its unit, number first.

Input Cl.Cl.O=c1nc(NCCCNCc2cc3c(Cl)cc(Cl)cc3[nH]2)[nH]c2ccccc12 [DDD806905] . Output IC50: 37 nM

---

# study_target: LdMetRS (Leishmania donovani, UniProt A0A3Q8IBX2)
# protocol: LdMetRS biochemical enzyme assay (BIOMOL Green)
# test_context: LdMetRS IC50, Fig S5C: methionine and ATP both 500 µM
readout_type: IC50

Test item Cl.Cl.O=c1nc(NCCCNCc2cc3c(Cl)cc(Cl)cc3[nH]2)[nH]c2ccccc12 ; LdMetRS (Leishmania donovani, UniProt A0A3Q8IBX2); reported IC50 was 433 nM

---

# study_target: LdMetRS (Leishmania donovani)
# protocol: LdMetRS biochemical enzyme assay (BIOMOL Green)
# test_context: LdMetRS IC50, Fig S5B: ATP 500 µM, methionine 500 µM
# Procedure: LdMetRS Assay Development and Kinetic Parameter Determinations Activity of the LdMetRS enzyme was determined by monitoring levels of pyrophosphate released during the first step of the enzymatic reaction. The pyrophosphate formed was converted to two inorganic phosphate molecules using a pyrophosphatase enzyme and levels of the resulting phosphate molecules measured using the BIOMOL® Green reagent (Enzo Life Sciences) 2. […]
readout_type: IC50 (nM)
I only need the number, in nM, no unit after it.

Record Cl.Cl.O=c1nc(NCCCNCc2cc3c(Cl)cc(Cl)cc3[nH]2)[nH]c2ccccc12 [DDD806905] . Reported IC50: 380
